B1: EHEE_rd2_0191 (parent)
chain: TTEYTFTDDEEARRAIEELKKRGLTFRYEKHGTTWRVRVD

- Variants of: B1
- Experimental Details: folding stability dG (cDNA display proteolysis); higher = more stable
- Study Conditions: PBS, room temperature
Reported Metric: folding stability dG

1) G23F ... 0.765 kcal/mol
2) T7V ... 1.71 kcal/mol
3) A12W ... 1.63 kcal/mol
4) F6W ... 0.741 kcal/mol
5) E3W ... 3.02 kcal/mol
6) E10P ... 0.527 kcal/mol
7) R36E ... 1.34 kcal/mol
8) R22Y ... 1.55 kcal/mol
9) R14Q ... 1.9 kcal/mol
10) T2A ... 1.82 kcal/mol
11) L24W ... 1.65 kcal/mol
12) T33N ... 2.55 kcal/mol
13) Y4L ... 1.93 kcal/mol
14) R14L ... 1.91 kcal/mol
15) E18S ... 1.99 kcal/mol
16) Y4W ... 2.22 kcal/mol
17) H31F ... 2.15 kcal/mol
18) A15K ... 1.97 kcal/mol
19) H31R ... 1.99 kcal/mol
20) V39W ... 0.937 kcal/mol
21) R14Y ... 1.64 kcal/mol
22) G32A ... 0.777 kcal/mol
23) K30A ... 0.56 kcal/mol
24) T34A ... 1.48 kcal/mol
25) T1D ... 1.75 kcal/mol
26) A12G ... 1.04 kcal/mol
27) D8M ... 0.896 kcal/mol
28) R36M ... 2.08 kcal/mol
29) T2H ... 2.08 kcal/mol
30) I16M ... 2.23 kcal/mol
31) R27E ... 2.02 kcal/mol
32) T5V ... 2.54 kcal/mol
33) K20R ... 2.27 kcal/mol
34) T34S ... 1.53 kcal/mol
35) T34I ... 2.48 kcal/mol
36) G32V ... -0.186 kcal/mol
37) Y4H ... 0.788 kcal/mol
38) G32K ... 0.641 kcal/mol
39) W35L ... 0.943 kcal/mol
40) T7M ... 1.82 kcal/mol
41) T34C ... 2.51 kcal/mol
42) K30Q ... 1.54 kcal/mol
43) G32T ... -0.068 kcal/mol
44) E17F ... 1.97 kcal/mol
45) T33Q ... 2.03 kcal/mol
46) T7K ... 1.62 kcal/mol
47) R36A ... 1.19 kcal/mol
48) R38L ... 2.95 kcal/mol
49) K20Y ... 1.99 kcal/mol
50) G23C ... 1.31 kcal/mol
51) L24F ... 2.08 kcal/mol
52) Y4V ... 0.805 kcal/mol
53) R22L ... 2.25 kcal/mol
54) K21W ... 1.37 kcal/mol
55) T33I ... 1.84 kcal/mol
56) I16Y ... -0.65 kcal/mol
57) T34G ... 1.56 kcal/mol
58) G32W ... -0.3 kcal/mol
59) R38E ... 2.35 kcal/mol
60) K21H ... 1.58 kcal/mol
61) R22G ... 1.28 kcal/mol
62) E10T ... 2.02 kcal/mol
63) R13A ... 1.85 kcal/mol
64) T1F ... 2.69 kcal/mol
65) E18H ... 1.86 kcal/mol
66) K20W ... 1.75 kcal/mol
67) D8N ... 2.41 kcal/mol
68) V39Y ... 0.601 kcal/mol
69) V39E ... -0.709 kcal/mol
70) K21T ... 1.82 kcal/mol
71) F6M ... -0.111 kcal/mol
